molecular target: Melanin-concentrating hormone receptor 1 (Homo sapiens); assay: Displacement of [125I]MCH from human MCHR1 expressed in CHO cells after 1 hr by scintillation counting; type: cell-based
pIC50: −log10 of the molar value.
MEASURED_METRIC: pIC50

SAMPLE_SMILES	MEASURED_METRIC	RECORDED_VALUE
O=C(Nc1ccc2cc(CN3CCCC3)cnc2c1)N1CCC(c2ccc(Cl)cc2)CC1	pIC50	8.18
COc1c(NC(=O)c2ccc(-c3ccc(F)cc3)cc2)ccc2cc(CN3CCCC3)cnc12	pIC50	6.96
O=C(Nc1ccc2cc(CN3CCCC3)cnc2c1)N1CCC(c2ccccc2)CC1	pIC50	7.00
O=C(Nc1ccc2cc(CN3CCCC3)cnc2c1)c1ccc(-c2ccccc2)nc1	pIC50	7.14
O=C(Nc1ccc2cc(CN3CCCC3)cnc2c1)c1ccc(-c2ccc(Cl)cc2)nc1	pIC50	8.39
Cc1c(NC(=O)c2ccc(-c3ccc(Cl)cc3)cc2)ccc2cc(CN3CCCC3)cnc12	pIC50	9.44
O=C(Nc1ccc2c(c1)OCC(CN1CCCC1)=C2)c1ccc(-c2ccc(F)cc2)cc1	pIC50	9.04
Cc1c(NC(=O)c2ccc(-c3ccccc3)cc2)ccc2cc(CN3CCCC3)cnc12	pIC50	8.74
COc1ccc(-c2ccc(C(=O)Nc3ccc4cc(CN5CCCC5)cnc4c3)cc2)cc1	pIC50	8.43
CCc1c(NC(=O)c2ccc(-c3ccc(F)cc3)cc2)ccc2cc(CN3CCCC3)cnc12	pIC50	7.00

* * *

assay: Bioavailability in Fischer 344 rat; type: ADME, organism-based; conditions: in vivo

SAMPLE_SMILES	bioavailability
Cc1c(NC(=O)c2ccc(-c3ccc(F)cc3)cc2)ccc2cc(CN3CCCC3)cnc12	39%

* * *

target: Melanin-concentrating hormone receptor 1 (Rattus norvegicus); assay: Displacement of [125I]MCH from rat MCHR1 expressed in CHO cells after 1 hr by scintillation counting
Sequence (P97639 whole entry): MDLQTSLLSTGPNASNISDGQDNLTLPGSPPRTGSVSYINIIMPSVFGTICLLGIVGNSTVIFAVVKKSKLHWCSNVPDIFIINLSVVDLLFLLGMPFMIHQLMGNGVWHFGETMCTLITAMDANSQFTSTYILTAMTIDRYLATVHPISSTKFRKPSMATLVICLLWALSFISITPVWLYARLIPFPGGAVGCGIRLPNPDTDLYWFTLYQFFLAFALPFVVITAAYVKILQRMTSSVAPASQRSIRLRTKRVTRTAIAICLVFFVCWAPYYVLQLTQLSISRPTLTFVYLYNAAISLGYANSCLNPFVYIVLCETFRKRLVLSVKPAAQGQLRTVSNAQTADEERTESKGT
pIC50: −log10 of the molar value.

SAMPLE_SMILES	pIC50
Cc1c(NC(=O)c2ccc(-c3ccc(F)cc3)cc2)ccc2cc(CN3CCCC3)cnc12	8.77

* * *

experiment: Total clearance in Fischer 344 rat at 0.3 mg/kg, iv; assay type: ADME, organism-based; design: dose 0.3 mg/kg, route intravenous; details: in vivo

SAMPLE_SMILES	clearance (mL/min/kg)
Cc1c(NC(=O)c2ccc(-c3ccc(F)cc3)cc2)ccc2cc(CN3CCCC3)cnc12	40

* * *

experiment: Volume of distribution at the steady state in Fischer 344 rat at 0.3 mg/kg, iv; format: ADME, organism-based; design: dose 0.3 mg/kg, route intravenous; details: in vivo, read-out: Vdss

SAMPLE_SMILES	Vd (L/kg)
Cc1c(NC(=O)c2ccc(-c3ccc(F)cc3)cc2)ccc2cc(CN3CCCC3)cnc12	20

* * *

biological target: Melanin-concentrating hormone receptor 1 (Homo sapiens, UniProt Q99705); experiment: Displacement of [125I]MCH from human MCHR1 expressed in CHO cells after 1 hr by scintillation counting; format: cell-based
Sequence (Q99705 whole entry): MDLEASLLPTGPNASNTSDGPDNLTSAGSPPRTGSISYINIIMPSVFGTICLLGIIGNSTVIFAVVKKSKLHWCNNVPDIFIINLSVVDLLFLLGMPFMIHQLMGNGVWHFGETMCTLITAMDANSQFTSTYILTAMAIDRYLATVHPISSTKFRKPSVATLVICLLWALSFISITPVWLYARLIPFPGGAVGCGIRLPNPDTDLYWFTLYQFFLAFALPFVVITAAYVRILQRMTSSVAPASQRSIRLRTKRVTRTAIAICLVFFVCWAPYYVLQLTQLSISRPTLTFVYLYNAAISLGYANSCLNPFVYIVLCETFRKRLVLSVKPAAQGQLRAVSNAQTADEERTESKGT
pIC50: −log10 of the molar value.

SAMPLE_SMILES	SYSTEM_TESTED	pIC50
O=C(Nc1ccc2cc(CN3CCCC3)cnc2c1F)c1ccc(-c2ccc(F)cc2)cc1	Melanin-concentrating hormone receptor 1 (Homo sapiens, UniProt Q99705)	9.04
Cc1ccc(-c2ccc(C(=O)Nc3ccc4cc(CN5CCCC5)cnc4c3)cc2)cc1	Melanin-concentrating hormone receptor 1 (Homo sapiens, UniProt Q99705)	8.66
O=C(Nc1ccc2nc(CN3CCCC3)ccc2c1)c1ccc(-c2ccc(F)cc2)cc1	Melanin-concentrating hormone receptor 1 (Homo sapiens, UniProt Q99705)	8.57
O=C(Nc1ccc2cc(CN3CCCC3)ccc2c1)c1ccc(-c2ccc(F)cc2)cc1	Melanin-concentrating hormone receptor 1 (Homo sapiens, UniProt Q99705)	9.12
O=C(Nc1ccc2cc(CN3CCCC3)cnc2c1)c1ccc(-c2ccccc2)cc1	Melanin-concentrating hormone receptor 1 (Homo sapiens, UniProt Q99705)	7.89

* * *

test: Tmax in Fischer 344 rat at 1 mg/kg, po; format: ADME, organism-based; design: dose 1 mg/kg, route oral; conditions: in vivo

SAMPLE_SMILES	VALUE_UNITS	Tmax
Cc1c(NC(=O)c2ccc(-c3ccc(F)cc3)cc2)ccc2cc(CN3CCCC3)cnc12	h	4

* * *

assay: Tmax in Fischer 344 rat brain at 1 mg/kg, po; format: ADME, organism-based; set-up: dose 1 mg/kg, route oral
MEASURED_METRIC: Tmax (h)

SAMPLE_SMILES	RECORDED_VALUE
Cc1c(NC(=O)c2ccc(-c3ccc(F)cc3)cc2)ccc2cc(CN3CCCC3)cnc12	8

* * *

assay: Cmax in Fischer 344 rat at 1 mg/kg, po; format: ADME, organism-based; parameters: dose 1 mg/kg, route oral; settings: in vivo

SAMPLE_SMILES	VALUE_UNITS	Cmax
Cc1c(NC(=O)c2ccc(-c3ccc(F)cc3)cc2)ccc2cc(CN3CCCC3)cnc12	ng/mL	9

* * *

experiment: AUC in Fischer 344 rat at 1 mg/kg, po; format: ADME, organism-based; set-up: dose 1 mg/kg, route oral; details: plasma
MEASURED_METRIC: AUC

SAMPLE_SMILES	RECORDED_VALUE
Cc1c(NC(=O)c2ccc(-c3ccc(F)cc3)cc2)ccc2cc(CN3CCCC3)cnc12	160 ng·h/mL

* * *

assay: Half life in Fischer 344 rat at 0.3 mg/kg, iv; assay type: ADME, organism-based; set-up: dose 0.3 mg/kg, route intravenous; settings: in vivo
MEASURED_METRIC: half-life (h)

SAMPLE_SMILES	RECORDED_VALUE
Cc1c(NC(=O)c2ccc(-c3ccc(F)cc3)cc2)ccc2cc(CN3CCCC3)cnc12	7.7

* * *

biological target: Melanin-concentrating hormone receptor 1 (Homo sapiens, UniProt Q99705); assay: Displacement of [125I]MCH from human MCHR1 expressed in CHO cells after 1 hr by scintillation counting; format: cell-based
pIC50: −log10 of the molar value.
Where pIC50 equals or exceeds 8, the correct label is 1.0; where it does not, the label is 0.0.

SAMPLE_SMILES	SYSTEM_TESTED	CLASS_NAME
O=C(Nc1ccc2cc(CN3CCCC3)cnc2c1)N1CCC(c2ccc(F)cc2)CC1	Melanin-concentrating hormone receptor 1 (Homo sapiens, UniProt Q99705)	0.0
Cc1cc2cc(CN3CCCC3)cnc2cc1NC(=O)c1ccc(-c2ccc(F)cc2)cc1	Melanin-concentrating hormone receptor 1 (Homo sapiens, UniProt Q99705)	1.0
Cc1ccc(C2CCN(C(=O)Nc3ccc4cc(CN5CCCC5)cnc4c3)CC2)cc1	Melanin-concentrating hormone receptor 1 (Homo sapiens, UniProt Q99705)	0.0
COc1ccc(-c2ccc(C(=O)Nc3ccc4cc(CN5CCCC5)cnc4c3C)cc2)cc1	Melanin-concentrating hormone receptor 1 (Homo sapiens, UniProt Q99705)	1.0
Cc1ccc(-c2ccc(C(=O)Nc3ccc4cc(CN5CCCC5)cnc4c3)cn2)cc1	Melanin-concentrating hormone receptor 1 (Homo sapiens, UniProt Q99705)	0.0
O=C(Nc1cc2ncc(CN3CCCC3)cc2cc1Cl)c1ccc(-c2ccc(F)cc2)cc1	Melanin-concentrating hormone receptor 1 (Homo sapiens, UniProt Q99705)	1.0
O=C(Nc1ccc2cc(CN3CCCC3)cnc2c1)c1ccc(-c2ccc(Cl)cc2)cc1	Melanin-concentrating hormone receptor 1 (Homo sapiens, UniProt Q99705)	1.0
O=C(Nc1ccc2cc(CN3CCCC3)cnc2c1)c1ccc(-c2ccc(F)cc2)cc1	Melanin-concentrating hormone receptor 1 (Homo sapiens, UniProt Q99705)	1.0
COc1ccc(-c2ccc(C(=O)Nc3ccc4cc(CN5CCCC5)cnc4c3)cn2)cc1	Melanin-concentrating hormone receptor 1 (Homo sapiens, UniProt Q99705)	0.0
COc1ccc(C2CCN(C(=O)Nc3ccc4cc(CN5CCCC5)cnc4c3)CC2)cc1	Melanin-concentrating hormone receptor 1 (Homo sapiens, UniProt Q99705)	0.0
O=C(Nc1ccc2cc(CN3CCCC3)cnc2c1)c1ccc(-c2ccc(F)cc2)nc1	Melanin-concentrating hormone receptor 1 (Homo sapiens, UniProt Q99705)	0.0
O=C(Nc1cc2ncc(CN3CCCC3)cc2cc1F)c1ccc(-c2ccc(F)cc2)cc1	Melanin-concentrating hormone receptor 1 (Homo sapiens, UniProt Q99705)	1.0
Cc1ccc(-c2ccc(C(=O)Nc3ccc4cc(CN5CCCC5)cnc4c3C)cc2)cc1	Melanin-concentrating hormone receptor 1 (Homo sapiens, UniProt Q99705)	1.0
Cc1c(NC(=O)c2ccc(-c3ccc(F)cc3)cc2)ccc2cc(CN3CCCC3)cnc12	Melanin-concentrating hormone receptor 1 (Homo sapiens, UniProt Q99705)	1.0

* * *

assay: Solubility of the compound in JP2 solution at 10 mM; format: physicochemical
compounds and their reported solubility

SAMPLE_SMILES	MODIFIER_SIGN	solubility / µg/mL
O=C(Nc1ccc2c(c1)OCC(CN1CCCC1)=C2)c1ccc(-c2ccc(F)cc2)cc1	=	0.17
O=C(Nc1ccc2cc(CN3CCCC3)ccc2c1)c1ccc(-c2ccc(F)cc2)cc1	=	0.11
O=C(Nc1ccc2cc(CN3CCCC3)cnc2c1)c1ccc(-c2ccc(F)cc2)cc1	=	1.5
O=C(Nc1ccc2c(c1)CCC(CN1CCCC1)=C2)c1ccc(-c2ccc(F)cc2)cc1	<	0.03
